Taken from the supplement of paper PMC10307832.

System: NCI-H1563
Test: relative viability (nuclei count vs DMSO), 5 days (fraction); higher = more cells survive
Conditions: first compound 0.1265 µM
Friendly reminder: relative viability below 0.6 is y, at or above is n.

Look over these answered cases.
Inquiry: Problem: For the compound Cc1sc2c(c1C)C(c1ccc(Cl)cc1)=N[C@@H](CC(=O)OC(C)(C)C)c1nnc(C)n1-2 [JQ1] + CCNC(=O)c1noc(-c2cc(C(C)C)c(O)cc2O)c1-c1ccc(CN2CCOCC2)cc1 [Luminespib] (partner 0.01 µM) , is relative viability under 0.6?
Reply text: y

Inquiry: A record lists Cc1sc2c(c1C)C(c1ccc(Cl)cc1)=N[C@@H](CC(=O)OC(C)(C)C)c1nnc(C)n1-2 [JQ1] + COc1cc2c(Oc3ccc(NC(=O)C4(C(=O)Nc5ccc(F)cc5)CC4)cc3F)ccnc2cc1OCCCN1CCOCC1 [Foretinib] (partner 0.25 µM) . Is its relative viability below 0.6?
Reply text: n

Inquiry: Decide: relative viability of Cc1sc2c(c1C)C(c1ccc(Cl)cc1)=N[C@@H](CC(=O)OC(C)(C)C)c1nnc(C)n1-2 [JQ1] + COc1cccc2cc(-c3nc([C@H]4CC[C@H](C(=O)O)CC4)n4ncnc(N)c34)[nH]c12 [OSI-027] (partner 0.5 µM) strictly below 0.6?
Reply text: n

Inquiry: Dear colleague, could you confirm whether relative viability of Cc1sc2c(c1C)C(c1ccc(Cl)cc1)=N[C@@H](CC(=O)OC(C)(C)C)c1nnc(C)n1-2 [JQ1] + Cc1nc(Nc2ncc(C(=O)Nc3c(C)cccc3Cl)s2)cc(N2CCN(CCO)CC2)n1 [Dasatinib] (partner 0.075 µM) falls below 0.6? Thanks.
Reply text: y

Inquiry: Could you please tell me whether relative viability recorded for Cc1sc2c(c1C)C(c1ccc(Cl)cc1)=N[C@@H](CC(=O)OC(C)(C)C)c1nnc(C)n1-2 [JQ1] + Cc1nc(NC(=O)N2CCC[C@H]2C(N)=O)sc1-c1ccnc(C(C)(C)C(F)(F)F)c1 [Alpelisib] (partner 2 µM) is less than 0.6?
Reply text: n

Continue with the next compound.
Inquiry: Here's an entry: Cc1sc2c(c1C)C(c1ccc(Cl)cc1)=N[C@@H](CC(=O)OC(C)(C)C)c1nnc(C)n1-2 [JQ1] + CS(=O)(=O)N1CCN(Cc2cc3nc(-c4cccc5[nH]ncc45)nc(N4CCOCC4)c3s2)CC1 [Pictilisib] (partner 1 µM) . Is its relative viability below 0.6?
Reply text: n
